Target: P. falciparum apicoplast DNA polymerase (Pf-apPOL) (Plasmodium falciparum, UniProt Q8ILY1)
Sequence (Q8ILY1 entry or part of it): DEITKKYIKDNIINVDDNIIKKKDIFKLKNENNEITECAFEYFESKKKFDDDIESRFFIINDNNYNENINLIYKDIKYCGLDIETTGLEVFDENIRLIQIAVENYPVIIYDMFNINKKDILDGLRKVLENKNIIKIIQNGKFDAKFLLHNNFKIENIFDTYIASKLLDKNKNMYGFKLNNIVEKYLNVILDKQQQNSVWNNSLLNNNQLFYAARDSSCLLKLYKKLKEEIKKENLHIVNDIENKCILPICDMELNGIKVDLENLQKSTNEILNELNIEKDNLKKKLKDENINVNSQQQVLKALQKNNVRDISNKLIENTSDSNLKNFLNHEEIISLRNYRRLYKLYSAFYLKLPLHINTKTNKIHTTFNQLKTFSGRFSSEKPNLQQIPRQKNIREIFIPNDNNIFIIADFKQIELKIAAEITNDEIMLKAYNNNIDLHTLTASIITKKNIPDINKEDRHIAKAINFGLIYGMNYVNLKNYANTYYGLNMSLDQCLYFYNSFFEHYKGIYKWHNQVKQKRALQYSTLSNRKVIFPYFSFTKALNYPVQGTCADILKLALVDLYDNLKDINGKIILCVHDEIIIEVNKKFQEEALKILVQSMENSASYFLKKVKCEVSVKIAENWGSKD
Test: Fluorescence-based high-throughput DNA polymerase assay (molecular beacon), primary screen and dose-response;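 note: test concentration in µM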
Type: biochemical
Conditions: DRC-2, 90', concentration 80 (unit not given)
Text: The HT assay employs a molecular beacon, a stem-loop DNA template with a Cy3 dye and the Black Hole Quencher on the 3′ and 5′ ends of the DNA, respectively. Pf-apPOL concentration is based on a calculated absorptivity of ε280 = 56750 M^−1 cm^−1. […] To identify apPOL inhibitors we utilised our previously developed high-throughput DNA polymerase assay. […] The assay accurately recapitulates the kinetic behaviour of apPOL, as measured through more conventional low-throughput gel-based assays. […]
Measurement name: % inhibition ApPOL 90' (%)

INSERT INTO measurements (molecule, target_of_assay, measurement_name, unit_abbrev, meas_value) VALUES
  ('O=c1[nH]c2ccc(Br)cc2c(-c2ccccc2)c1C1=NNC(c2ccco2)C1 (stereo not drawn) [KU0045540]', 'P. falciparum apicoplast DNA polymerase (Pf-apPOL) (Plasmodium falciparum, UniProt Q8ILY1)', '% inhibition ApPOL 90''', '%', 72),
  ('O=c1cc(CN2CCCCC2)c2cc3c(cc2o1)OCO3 [Molecule 56, O=c1cc(CN2CCCCC2)c2c(o1)cc1c(c2)OCO1]', 'P. falciparum apicoplast DNA polymerase (Pf-apPOL) (Plasmodium falciparum, UniProt Q8ILY1)', '% inhibition ApPOL 90''', '%', 68),
  ('NS(=O)(=O)c1ccc(NC(=O)c2ccc(N3C(=O)CCC3=O)cc2)cc1 [KU0025331]', 'P. falciparum apicoplast DNA polymerase (Pf-apPOL) (Plasmodium falciparum, UniProt Q8ILY1)', '% inhibition ApPOL 90''', '%', 67),
  ('OC(C#Cc1ccccc1)c1ccco1 (stereo not drawn) [Molecule 95, OC(c1ccco1)C#Cc1ccccc1]', 'P. falciparum apicoplast DNA polymerase (Pf-apPOL) (Plasmodium falciparum, UniProt Q8ILY1)', '% inhibition ApPOL 90''', '%', 60),
  ('O=C(O)c1ccc(-c2nc3cc(-c4ccc5nc(-c6ccc(C(=O)O)cc6)[nH]c5c4)ccc3[nH]2)cc1 [Molecule 1]', 'P. falciparum apicoplast DNA polymerase (Pf-apPOL) (Plasmodium falciparum, UniProt Q8ILY1)', '% inhibition ApPOL 90''', '%', 41),
  ('O=C(Cn1ccc2c(=O)[nH]ccc21)Nc1cccc(Cl)c1 [Molecule 23, O=C(Cn1ccc2c1cc[nH]c2=O)Nc1cccc(c1)Cl]', 'P. falciparum apicoplast DNA polymerase (Pf-apPOL) (Plasmodium falciparum, UniProt Q8ILY1)', '% inhibition ApPOL 90''', '%', 57);
